- protocol description: Probe fluorescence ratio response to linolenic acid relative to ADIFAB2
- Assay type: binding
- condition parameters: response relative to ADIFAB2
Reported DR/DR LNA values for a set of molecules
readout kind: DR/DR LNA

1) 23N1, 72A (protein, listed as Rattus norvegicus, PEPTIDE (1)...(131) wild-type rat intestinal fatty acid binding protein) AFDGTWKVDRNENYEKFMEKMGNNVVKRKLGAHDNLKLTITQEGNKFTVKESSNFRNIDVVFELGVDFAYSAADGTELTGTWTMEGNKLVGKFKRVDNGKELIAVREISGNELIQTYTYEGVEAKRIFKKE : 0.13
2) 23H1, 72A (protein, listed as Rattus norvegicus, PEPTIDE (1)...(131) wild-type rat intestinal fatty acid binding protein) AFDGTWKVDRNENYEKFMEKMGHNVVKRKLGAHDNLKLTITQEGNKFTVKESSNFRNIDVVFELGVDFAYSAADGTELTGTWTMEGNKLVGKFKRVDNGKELIAVREISGNELIQTYTYEGVEAKRIFKKE : 0.17
